# assayed-target: PDGFβ (Homo sapiens)
# test-details: PDGFβ enzyme assay
# Type: biochemical
# details: Table IV, amide or urea linker
pIC50: −log10 of the molar value.
Cut-off 7 on pIC50, inclusive. At or above means MET; below means NOT MET.

Ask: Evaluate `Cc1ccc(F)c(NC(=O)Nc2ccc(Oc3ccnc(-c4cc(C(=O)NCCc5nn[nH]n5)c[nH]4)c3)cc2)c1` : pIC50 at minimum 7?
Result: MET

Ask: # repeat for `Cc1ccc(F)c(NC(=O)c2ccc(F)c(Oc3ccnc(-c4cc(C(=O)NCCCNC(=O)OC(C)(C)C)c[nH]4)c3)c2)c1`
Result: NOT MET

Ask: Further, for `COC(=O)CCNC(=O)c1c[nH]c(-c2cc(Oc3ccc(NC(=O)Nc4cc(C)ccc4F)c(F)c3)ccn2)c1` ?
Result: MET

Ask: And then `CCOC(=O)CCCCNC(=O)c1c[nH]c(-c2cc(Oc3ccc(NC(=O)Nc4cc(C)ccc4F)cc3)ccn2)c1` , what is it?
Result: MET

Ask: Subsequent entry: `COC(=O)CC[C@H](NC(=O)c1c[nH]c(-c2cc(Oc3ccc(NC(=O)Nc4cc(C)ccc4F)c(F)c3)ccn2)c1)C(=O)OC`
Result: MET

====

# assayed-target: PDGFβ (Homo sapiens, UniProt P09619)
# Sequence (P09619 33-1106): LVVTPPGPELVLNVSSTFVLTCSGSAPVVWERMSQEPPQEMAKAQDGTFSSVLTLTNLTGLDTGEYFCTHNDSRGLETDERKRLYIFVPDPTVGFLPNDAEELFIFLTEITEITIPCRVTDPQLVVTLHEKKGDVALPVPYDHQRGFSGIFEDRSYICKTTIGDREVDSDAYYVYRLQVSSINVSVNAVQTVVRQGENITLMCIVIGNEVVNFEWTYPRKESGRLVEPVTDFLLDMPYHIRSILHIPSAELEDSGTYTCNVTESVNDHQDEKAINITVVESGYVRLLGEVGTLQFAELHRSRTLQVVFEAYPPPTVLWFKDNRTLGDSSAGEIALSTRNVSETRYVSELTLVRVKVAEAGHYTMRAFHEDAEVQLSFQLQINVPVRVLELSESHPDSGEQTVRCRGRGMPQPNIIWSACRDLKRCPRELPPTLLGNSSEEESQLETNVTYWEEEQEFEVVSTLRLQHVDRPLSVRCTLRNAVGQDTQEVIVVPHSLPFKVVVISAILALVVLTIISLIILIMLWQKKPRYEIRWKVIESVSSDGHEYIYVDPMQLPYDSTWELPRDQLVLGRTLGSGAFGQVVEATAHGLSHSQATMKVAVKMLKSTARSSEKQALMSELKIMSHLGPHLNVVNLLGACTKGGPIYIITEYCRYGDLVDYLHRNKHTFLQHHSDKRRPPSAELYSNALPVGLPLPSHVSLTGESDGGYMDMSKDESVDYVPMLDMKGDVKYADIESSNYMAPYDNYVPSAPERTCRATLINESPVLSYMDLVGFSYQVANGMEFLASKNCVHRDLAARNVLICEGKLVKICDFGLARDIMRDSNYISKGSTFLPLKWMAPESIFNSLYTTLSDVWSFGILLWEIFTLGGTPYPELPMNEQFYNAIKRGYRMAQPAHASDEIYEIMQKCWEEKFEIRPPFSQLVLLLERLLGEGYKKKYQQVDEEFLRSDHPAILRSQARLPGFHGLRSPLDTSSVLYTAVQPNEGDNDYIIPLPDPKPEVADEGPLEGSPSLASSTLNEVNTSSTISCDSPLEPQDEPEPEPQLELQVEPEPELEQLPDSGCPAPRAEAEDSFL
# test-details: PDGFβ enzyme assay
# Type: biochemical
# details: Table IV, amide or urea linker
Would you mind telling me the reported pIC50 of each entry?
One number for each entry, as −log10 of the molar value.

COC(=O)[C@@H]1C[C@@H](O)CN1CCCNC(=O)c1c[nH]c(-c2cc(Oc3ccc(NC(=O)Nc4cc(C)ccc4F)c(F)c3)ccn2)c1 (relative stereo) ... 7.68
COC(=O)[C@@H]1C[C@@H](O)CN1CCNC(=O)c1c[nH]c(-c2cc(Oc3ccc(NC(=O)Nc4cc(C)ccc4F)cc3)ccn2)c1 (relative stereo) ... 7.70
COC(=O)CCCNC(=O)c1c[nH]c(-c2cc(Oc3ccc(NC(=O)Nc4cc(C)ccc4F)cc3)ccn2)c1 ... 7.42
CCOC(=O)N1CCN(CCNC(=O)c2c[nH]c(-c3cc(Oc4ccc(NC(=O)Nc5cc(C)ccc5F)c(F)c4)ccn3)c2)CC1 ... 7.92
Cc1ccc(F)c(NC(=O)Nc2ccc(Oc3ccnc(-c4cc(C(=O)NCCCCC(=O)O)c[nH]4)c3)cc2)c1 ... 7.96

Ask: // lookup pIC50 for `Cc1ccc(F)c(NC(=O)Nc2ccc(Oc3ccnc(-c4csc(C(=O)NCCC(=O)O)c4)c3)cc2)c1`
Result: 7.80

====

# assayed-target: PDGFβ (Homo sapiens, UniProt P09619)
# test-details: PDGFβ enzyme assay
# Assay type: biochemical
# details: Table IV, amide or urea linker
pIC50: −log10 of the molar value.
Would you mind labelling by pIC50? At or over 7 is satisfied, under is not satisfied.

Cc1ccc(F)c(NC(=O)Nc2ccc(Oc3ccnc(-c4cc(C(=O)NCCN)c[nH]4)c3)cc2F)c1 ... satisfied
COC(=O)CNCCCNC(=O)c1c[nH]c(-c2cc(Oc3ccc(NC(=O)Nc4cc(C)ccc4F)cc3)ccn2)c1 ... satisfied
CCNC(=O)[C@H](CCC(=O)O)NC(=O)c1c[nH]c(-c2cc(Oc3cc(C(=O)Nc4cc(C)ccc4F)ccc3F)ccn2)c1 ... not satisfied
COC(=O)CN(CCCNC(=O)c1c[nH]c(-c2cc(Oc3ccc(NC(=O)Nc4cc(C)ccc4F)cc3)ccn2)c1)CC(=O)OC ... satisfied
CCOC(=O)CN1CCN(CCNC(=O)c2c[nH]c(-c3cc(Oc4ccc(NC(=O)Nc5cc(C)ccc5F)cc4)ccn3)c2)CC1 ... satisfied

Now for a further compound.
Ask: Test whether the compound `COC(=O)CNC(=O)c1c[nH]c(-c2cc(Oc3ccc(NC(=O)Nc4cc(C)ccc4F)c(F)c3)ccn2)c1` records pIC50 of 7 or higher.
Result: satisfied

Data origin: patent US8906944B2
